Tested on: SK-OV-3
Test: NCI tumour cell line growth inhibition, 48 h
Calls of active or inactive are those of the source. Rule as the data show it: active = GI50 up to about 1.1 µM and inactive = higher.
A correct response names exactly one class from active, inactive

>  <molecule>
NC(=O)c1nnsc1N/N=C/c1ccc([N+](=O)[O-])cc1

>  <assay system>
SK-OV-3

>  <cat>
inactive

$$$$

## Input Field: outcome | Entry: "NC(CCC(=O)O)(CCC(=O)O)CCC(=O)O"
## Output inactive

## Input Query: recorded result category for COC(=O)CC1C(C)(C)C(=O)C2CC3=C4CC(=O)OC(c5ccoc5)C4(C)CCC3C1(C)C2=O (centres undefined) in this test
## Output inactive

## Input Tell me the recorded outcome of this test for "CC(=O)O[C@H]1C(=O)[C@@]2(C)[C@H]([C@H](OC(=O)c3ccccc3)[C@]3(O)C[C@H](OC(=O)[C@H](O)[C@@H](NC(=O)c4ccco4)c4ccccc4)C(C)=C1C3(C)C)[C@]1(OC(C)=O)CO[C@@H]1C[C@@H]2O" .
## Output active

## Input Give the logged outcome of this assay for the following molecule: "CCCCCC(=O)Nc1[nH]nnc1C#N"
## Output inactive

## Input # lookup: test call for COC(=O)C1CC23CCCN4CCC5(c6ccccc6N(C=O)C15CC2)C43 (centres undefined)
## Output inactive

## Input Test call, this molecule: "O=C1NC(N/N=C/c2ccccc2)=N/C1=C\c1ccco1"
## Output inactive

## Input // outcome(item) with item = "COc1ccc2c(c1)SC1=Nc3sc4cc(OC)ccc4[n+]3CN12"
## Output inactive

## Input How did this test come out for CC(CN(C)C)C(O)(c1ccccc1)c1ccccc1 (centres undefined) ?
## Output inactive

----------
# reported GI50; entries follow
System: SNB-75
Experiment: NCI tumour cell line growth inhibition, 48 h
The source made the active and inactive calls. Rule as the data show it: active = GI50 up to about 1.1 µM and inactive = higher.

Here is how some compounds turned out for GI50.
>  <compound>
O=C(/C=C/c1ccc(Cl)c(Cl)c1)Oc1ccc(/C=C2\CCCCC2=O)cc1

>  <reading>
> 100 µM (inactive)

$$$$
>  <compound>
COc1cc(C(=O)C/C(CCC(=O)Nc2ccccc2[N+](=O)[O-])=N\NC(N)=O)ccc1O

>  <reading>
> 100 µM (inactive)

$$$$
>  <compound>
CCOC(=O)c1c(O)cc(=O)[nH]c1N1CCOCC1

>  <reading>
> 100 µM (inactive)

$$$$

Lookup result for COc1ccc(C(=O)C(C(=O)C(=O)Nc2nccs2)c2ccc(OC)cc2)cc1 (stereo unspecified) ; measured GI50: 73.6 µM (inactive)

Record summary for "NC1CCCCC1.O=C(O)C1(P(=O)(O)O)CC1" : reported GI50 = 92.3 µM (inactive)

Lab note: "COC(=O)/C=C1/OC(c2ccc(C)cc2C)=CC1=O" gave GI50 of 12.9 µM (inactive)

----------
Tested on: HOP-62
Test: NCI tumour cell line growth inhibition, 48 h
Calls of active or inactive are those of the source. Rule as the data show it: active = GI50 up to about 1.1 µM and inactive = higher.
recorded metric: GI50

>  <molecule>
COC(=O)CCc1c(Cc2ccc[nH]2)[nH]c(C(=O)OCc2ccccc2)c1C

>  <GI50>
19.5 µM (inactive)

$$$$
>  <molecule>
O=C(NN1C(=O)CS(=O)(=O)C1c1cccc(F)c1)c1ccncc1 (stereo not given)

>  <GI50>
> 100 µM (inactive)

$$$$
>  <molecule>
CC(C)C(C(=O)O)N(CC1(O)OCC(O)C(O)C1O)N=O (stereo not given)

>  <GI50>
> 100 µM (inactive)

$$$$
>  <molecule>
N#C/C(=C1\SC(C(N)=O)=C(N)N1c1ccccc1)c1nc2ccccc2[nH]1

>  <GI50>
> 100 µM (inactive)

$$$$
>  <molecule>
O=C/C=C/c1ccco1

>  <GI50>
> 100 µM (inactive)

$$$$

Record COc1cc(/C=C2/C(=O)N(C(=O)OCC(C)C)C(Cc3cc(OC)c(OC)c(C)c3OC)C(=O)N2Cc2ccccc2)c(OC)c(C)c1OC (stereo not given) , field GI50: 54.7 µM (inactive)

Reported GI50 for "COc1cc(/C=C2\N=C(c3ccccc3)N(/N=C/c3cc4cc(C)ccc4nc3Cl)C2=O)cc(OC)c1OC" was 58.7 µM (inactive)

Entry under test: "CCCCOc1ccc(/C=C/C2=[N+](CCO)CCO2)cc1" . Its GI50 was > 100 µM (inactive)

Record summary for "Cc1cc(C)c(-n2c(C)c(C)c(C#N)c2N)c(C)c1" : reported GI50 = 35.8 µM (inactive)

The value of GI50 measured for the molecule S=C=NCc1ccccc1 [BENZYL ISOTHIOCYANATE] turned out to be 3.05 µM (inactive)
